target: P2Y purinoceptor 1 (Meleagris gallopavo, UniProt P49652); assay: Agonist activity at turkey P2Y1R expressed in 1321N1 cells assessed as increase in intracellular calcium concentration by spectrofluorimetry
Sequence (P49652 whole entry): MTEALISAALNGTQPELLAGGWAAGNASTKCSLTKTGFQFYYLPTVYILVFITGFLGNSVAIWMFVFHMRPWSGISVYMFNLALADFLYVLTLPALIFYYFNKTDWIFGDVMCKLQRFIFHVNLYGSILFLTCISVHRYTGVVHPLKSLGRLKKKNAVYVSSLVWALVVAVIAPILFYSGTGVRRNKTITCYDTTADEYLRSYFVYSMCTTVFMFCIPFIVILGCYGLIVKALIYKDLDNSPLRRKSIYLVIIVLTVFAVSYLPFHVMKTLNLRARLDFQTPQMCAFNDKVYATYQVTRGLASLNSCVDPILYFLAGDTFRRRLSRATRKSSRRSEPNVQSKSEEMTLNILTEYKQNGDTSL
readout: pEC50
pEC50 is a log-scale quantity: -log10 of the concentration expressed in molar.

## Input Test system P2Y purinoceptor 1 (Meleagris gallopavo, UniProt P49652); read-out pEC50; what value for B[P@@](=O)(OC[C@H]1O[C@@H](n2cnc3c(N)nc(SC)nc32)[C@H](O)[C@@H]1O)OP(=O)(O)O ?
## Output 7.47

Origin of measurements: BindingDB's records for doi:10.1021/jm3006355
